This collection of values is drawn from ChEMBL document CHEMBL1201862.

system: EKVX; assay: NCI tumour cell line growth inhibition, 48 h
The source made the active and inactive calls. Cut-off read from the data, not from the text of the source: active = GI50 up to about 1.1 µM and inactive = higher.
Give one outcome, nothing more. List: active, inactive

{"compound": "CCC1CN2CCc3c([nH]c4ccccc34)C2C[C@@H]1CC(=O)N(C)C (some centres not stated)", "group": "inactive"}

State the result this test recorded for CC(C)(C)OC(=O)N1C(C2=COc3ccccc3O2)=COc2cccnc21 .
inactive

State the result this test recorded for CC1(C)Oc2ccc3c(=O)cc(-c4ccc(F)cc4)oc3c2C1C(=O)O (configuration not stated) .
inactive

State the result this test recorded for CN(C)CCNC(=O)c1cccc2cc3c(Cl)cccc3nc12 .
inactive

State the result this test recorded for CC(C)(C)OC(=O)N1CCCC1C(=O)NC(c1ccccc1)c1ccccc1 (configuration not stated) .
inactive

State the result this test recorded for COc1ccc(-c2ccc(CC(=O)O)cc2)cc1OC .
inactive

State the result this test recorded for COC(=O)c1nc(-c2ccc3c(n2)C(=O)C(=N)C(OC)=C3O)c(N)c(-c2ccc(OC)c(OC)c2O)c1C .
inactive

====

The reader will find reported GI50 values listed item by item below.
system: M19-MEL; assay: NCI tumour cell line growth inhibition, 48 h
Activity calls are given as the source filed them. No stated cut-off is given here; in the data, active = GI50 up to about 1.1 µM and inactive = higher.

Some compounds with recorded GI50:
{"compound": "Cc1cc(N(CCC#N)CCC#N)ccc1/C=C1N=C(/C=C/c2ccccc2)N(c2ccc(S(N)(=O)=O)cc2)C\\1=O", "GI50": "> 100 µM (inactive)"}
{"compound": "CC1=NN(C(=O)Cc2ccccc2)C(=O)/C1=C\\c1ccco1", "GI50": "> 100 µM (inactive)"}

Value wanted: GI50 (M19-MEL) of entry COc1cc([C@@H]2c3cc4c(cc3[C@@H](OC(=O)c3cccc(N)c3)C3COC(=O)[C@@H]32)OCO4)cc(OC)c1O (some centres not stated)
5.68 µM (inactive)

Value wanted: GI50 (M19-MEL) of entry CC(C)c1cccc(C(C)C)c1NC(=O)C(=O)C1CCC2=C(Sc3ccccc3N2)C1=O (configuration not stated)
> 100 µM (inactive)

Value wanted: GI50 (M19-MEL) of entry CN/N=C(/Cc1occc(=O)c1O)C(=O)Nc1ccccc1C
> 100 µM (inactive)

====

tested on: SN12C; assay: NCI tumour cell line growth inhibition, 48 h
Calls of active or inactive are those of the source. Cut-off read from the data, not from the text of the source: active = GI50 up to about 1.1 µM and inactive = higher.
Give one outcome, nothing more. List: yes (active), no (inactive)

For orientation, consider the following solved cases.
{"compound": "CC1=CCC2(C#N)CCC1C2O (stereo not given)", "assayed_system": "SN12C", "group": "no"}
{"compound": "COc1ccc2c(NCCCCCCNc3c4ccccc4nc4cc(OC)ccc34)c3ccccc3nc2c1", "assayed_system": "SN12C", "group": "yes"}
{"compound": "OCC12C=CC(C1)c1ccccc12 (stereo not given)", "assayed_system": "SN12C", "group": "no"}

State the result this test recorded for CCCSCC(P(=O)(O)O)P(=O)(O)O.NC1CCCCC1 .
no

State the result this test recorded for N#C/C(=C\c1ccc(O)cc1)C(N)=O .
no

State the result this test recorded for C=CCCn1nc(-c2ccccc2)oc1=O .
no

State the result this test recorded for COc1ccc(NC(=O)C(=O)C(CC2C(=O)NC(=S)NC2=O)C(=O)c2ccc3ccccc3c2)c([N+](=O)[O-])c1 (stereo not given) .
no

State the result this test recorded for COc1cc(C)c2c(c1C=O)Oc1c(c(C)c(O)c3c1C(O)OC3=O)OC2=O (stereo not given) [STICTIC ACID] .
no

State the result this test recorded for CN(C)c1ccc(/C=C/C(=O)C(C)(C)C)cc1Br .
no

State the result this test recorded for NC1=NC2=c3ccccc3=C(c3cnccn3)C2(c2cnccn2)c2ccccc21 (stereo not given) .
no

State the result this test recorded for Nc1ccc(-c2nc3ccccc3s2)cc1C(F)(F)F .
no

State the result this test recorded for O=C(NCCCc1cn[nH]c(=O)n1)c1cccc2nc3ccccc3nc12 .
no

State the result this test recorded for COc1ccccc1C(O)(c1ccccc1)C(O)(c1ccccc1)c1ccccc1OC (stereo not given) .
no

State the result this test recorded for CCC1(O)C[C@H]2CN(CCCc3c([nH]c4ccccc34)[C@@](C(=O)OC)(c3cc4c(cc3OC)N(C)C3[C@](O)(C(=O)OC)[C@H](OC(C)=O)[C@]5(CC)C=CCN6CC[C@]43[C@H]65)C2)C1 (stereo not given in full) .
no

State the result this test recorded for Brc1ccc(C2(N3CCCCC3)CCCCC2)s1 .
no

State the result this test recorded for CC(C)(C)OC(=O)N1C(C2=COc3ccccc3O2)=COc2cccnc21 .
no

State the result this test recorded for CC(=O)c1cc2ccccc2[n+]([O-])c1N .
no

State the result this test recorded for Cc1cc(C)nc(NS(=O)(=O)c2ccc(Nc3c4ccccc4nc4c(C(=O)Nc5ccc(S(=O)(=O)Nc6cc(C)on6)cc5)cccc34)cc2)n1 .
no

State the result this test recorded for O=C(CCC(=O)N/N=C/c1ccccc1O)N/N=C/c1ccccc1O .
no

State the result this test recorded for C/C(=C\CNc1ncnc2[nH]c(Cl)nc12)CO .
no

State the result this test recorded for O=C(COc1ccccc1Cl)N1N=C(c2ccccc2)CC1(O)c1ccccc1 (stereo not given) .
no

State the result this test recorded for C#CCN(N=O)C(=O)NC(CCCCNC(=O)OCc1ccccc1)C(=O)OCc1ccccc1 (stereo not given) .
no

====

system: M14; test: NCI tumour cell line growth inhibition, 48 h
Calls of active or inactive are those of the source. No stated cut-off is given here; in the data, active = GI50 up to about 1.1 µM and inactive = higher.
measurement_type: GI50

{"compound": "NC(=O)C(=O)c1ncn(Cc2ccccc2)c1N", "assayed_system": "M14", "recorded_result": "> 100 µM (inactive)"}
{"compound": "CC1(C)Oc2ccc3c(=O)cc(-c4ccc(F)cc4)oc3c2C1C(=O)O (centres undefined)", "assayed_system": "M14", "recorded_result": "> 100 µM (inactive)"}
{"compound": "CCOC(=O)c1ccc(O)cc1", "assayed_system": "M14", "recorded_result": "> 100 µM (inactive)"}
{"compound": "NCCSc1nc(N)c2ncn(C3OC(CO)C(O)C3O)c2n1 (centres undefined)", "assayed_system": "M14", "recorded_result": "> 100 µM (inactive)"}
{"compound": "Cc1cc(Br)c(N2C3=C(CC4=C2CCCC4=O)C(=O)CCC3)c(Br)c1", "assayed_system": "M14", "recorded_result": "> 100 µM (inactive)"}
{"compound": "COC(=O)C(=O)C(C(C)=O)C(=O)NCc1ccccc1 (centres undefined)", "assayed_system": "M14", "recorded_result": "> 100 µM (inactive)"}

Endpoint output: GI50 of c1ccc([P+](c2ccccc2)(c2ccccc2)C2Sc3ccccc3S2)cc1 . Value?
15.3 µM (inactive)

Endpoint output: GI50 of COC(=O)C1=C(C)N2CCCOC2(C)C(C(=O)OC)C1c1cccc(Cl)c1 (centres undefined) . Value?
20 µM (inactive)

Endpoint output: GI50 of CCOP(=O)(OCC)C(C(=O)OC)C(=O)C(=O)Nc1c(C)cc(Br)cc1C (centres undefined) . Value?
> 100 µM (inactive)

Endpoint output: GI50 of O=c1c2cc(I)ccc2nc(-c2cccs2)n1/N=C/c1ccccc1 . Value?
> 100 µM (inactive)

Endpoint output: GI50 of CCCN(CCC)C(=S)N/N=C/c1cccc(C)n1 . Value?
< 0.01 µM (active)

Endpoint output: GI50 of CCCN1CC=CCC1 . Value?
> 100 µM (inactive)

Endpoint output: GI50 of N#C/C(=C\c1ccc(O)cc1)C(N)=O . Value?
> 100 µM (inactive)

Endpoint output: GI50 of C#CCN(N=O)C(=O)NC(CCCCNC(=O)OCc1ccccc1)C(=O)OCc1ccccc1 (centres undefined) . Value?
21.4 µM (inactive)

====

system: RPMI-8226; assay: NCI tumour cell line growth inhibition, 48 h
Calls of active or inactive are those of the source. Cut-off read from the data, not from the text of the source: active = GI50 up to about 1.1 µM and inactive = higher.
Give one outcome, nothing more. List: active, inactive

For orientation, consider the following solved cases.
{"compound": "NC1=NC2=c3ccccc3=C(c3cnccn3)C2(c2cnccn2)c2ccccc21 (configuration not stated)", "group": "inactive"}
{"compound": "COC1C(O)C(C)OC(O[C@@H]2C[C@H]3CC[C@@H]4[C@H](CC[C@]5(C)[C@@H](C6=CC(=O)OC6)CC[C@]45O)[C@@]3(C)[C@H](O)C2)C1O (some centres not stated)", "group": "active"}
{"compound": "COc1ccc(CCn2cnc3ccccc32)cc1", "group": "inactive"}
{"compound": "CCCSCC(P(=O)(O)O)P(=O)(O)O.NC1CCCCC1", "group": "inactive"}
{"compound": "C#CCOC(=O)[C@@H](C)c1ccc2cc(OC)ccc2c1", "group": "inactive"}
{"compound": "N=C(N)N/N=C\\c1c(-c2ccccc2)nc2sccn12", "group": "inactive"}

State the result this test recorded for COc1ccc2nc(-c3ccc(OCc4ccccc4)cc3)ccc2c1 .
inactive

State the result this test recorded for COc1ccc(C(=O)Oc2c(C#N)sc3c2c(=O)n(-c2ccccc2)c(=S)n3-c2ccccc2)cc1 .
inactive

State the result this test recorded for CC(C)(C)C=C=C(C(C)(C)C)P(=O)(O)O .
active

State the result this test recorded for Cc1nc2c(nc1C)C(=O)C1=C(C2=O)C2C=CC1CC2 .
inactive

State the result this test recorded for c1ccc([P+](c2ccccc2)(c2ccccc2)C2Sc3ccccc3S2)cc1 .
inactive

State the result this test recorded for COC(=O)CCc1ccc2c(c1)[C@H](C(=O)OC)[C@@H](c1ccc(O)cc1)O2 .
inactive
